The origin of these recorded values is paper PMC11637875.

targetOrSystem: PARP7 (Homo sapiens)
Sequence (Q7Z3E1 whole entry, canonical isoform): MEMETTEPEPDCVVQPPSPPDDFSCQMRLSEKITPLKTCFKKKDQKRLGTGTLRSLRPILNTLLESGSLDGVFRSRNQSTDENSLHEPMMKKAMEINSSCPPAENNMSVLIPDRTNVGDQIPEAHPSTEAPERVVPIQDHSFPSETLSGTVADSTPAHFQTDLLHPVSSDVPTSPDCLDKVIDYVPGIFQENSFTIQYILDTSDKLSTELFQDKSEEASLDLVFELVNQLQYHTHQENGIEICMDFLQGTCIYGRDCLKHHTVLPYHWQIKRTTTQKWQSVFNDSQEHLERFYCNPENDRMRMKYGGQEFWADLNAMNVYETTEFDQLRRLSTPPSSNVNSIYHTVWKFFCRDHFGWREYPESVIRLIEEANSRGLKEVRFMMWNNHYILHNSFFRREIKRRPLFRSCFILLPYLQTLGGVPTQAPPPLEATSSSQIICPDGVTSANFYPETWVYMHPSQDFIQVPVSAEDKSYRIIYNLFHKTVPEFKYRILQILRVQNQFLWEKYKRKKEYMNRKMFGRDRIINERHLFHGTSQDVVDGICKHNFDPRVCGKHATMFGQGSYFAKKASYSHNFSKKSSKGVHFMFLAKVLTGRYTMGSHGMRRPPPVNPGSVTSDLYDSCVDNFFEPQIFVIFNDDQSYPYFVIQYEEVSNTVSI
experimentSummary: Selectivity profile (other isoforms of PARP and NRP family)
pIC50: −log10 of the molar value.
reportedEndpoint: pIC50

Q: Hello, I am looking for reported pIC50 with PARP7 (Homo sapiens) for NC(N)=NCCC[C@H](NCN1CCN(C(=O)c2cc(Cc3n[nH]c(=O)c4ccccc34)ccc2F)CC1)C(=O)O . Could you help?
A: < 5.00

###

targetOrSystem: AMPKα2/β1/γ1 (Homo sapiens, UniProt P54619+P54646+Q9Y478)
experimentSummary: Selectivity profile (123 kinase panel)
reportedEndpoint: IC50

Q: Name the reported IC50 value associated with the compound NC(N)=NCCC[C@H](NCN1CCN(C(=O)c2cc(Cc3n[nH]c(=O)c4ccccc34)ccc2F)CC1)C(=O)O
A: > 10 µM

###

targetOrSystem: FES (Homo sapiens)
Sequence (P07332 whole entry, species assumed): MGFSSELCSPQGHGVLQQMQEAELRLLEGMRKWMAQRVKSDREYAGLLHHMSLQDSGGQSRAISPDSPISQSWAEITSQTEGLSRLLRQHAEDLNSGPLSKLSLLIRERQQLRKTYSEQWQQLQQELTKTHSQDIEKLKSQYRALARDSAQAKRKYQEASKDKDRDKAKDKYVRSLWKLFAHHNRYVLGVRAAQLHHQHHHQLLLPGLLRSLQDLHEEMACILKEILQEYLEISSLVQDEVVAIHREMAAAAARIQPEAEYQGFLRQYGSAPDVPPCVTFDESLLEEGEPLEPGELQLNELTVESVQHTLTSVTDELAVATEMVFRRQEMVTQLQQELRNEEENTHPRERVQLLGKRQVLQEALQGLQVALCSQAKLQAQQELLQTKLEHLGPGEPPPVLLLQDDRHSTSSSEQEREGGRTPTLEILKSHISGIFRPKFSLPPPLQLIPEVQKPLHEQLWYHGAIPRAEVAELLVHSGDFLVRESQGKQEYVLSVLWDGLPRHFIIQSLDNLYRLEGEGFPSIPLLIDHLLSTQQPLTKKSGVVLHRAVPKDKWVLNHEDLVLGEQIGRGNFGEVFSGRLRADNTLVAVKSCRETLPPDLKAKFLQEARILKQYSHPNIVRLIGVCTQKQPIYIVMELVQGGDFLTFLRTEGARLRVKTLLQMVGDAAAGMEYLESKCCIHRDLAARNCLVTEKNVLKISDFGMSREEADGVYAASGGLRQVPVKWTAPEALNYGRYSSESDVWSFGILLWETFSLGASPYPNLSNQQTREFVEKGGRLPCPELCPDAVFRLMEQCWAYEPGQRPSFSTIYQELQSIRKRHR
pIC50: −log10 of the molar value.
reportedEndpoint: pIC50

Q: Hello, I am looking for reported pIC50 with FES (Homo sapiens) for NC(N)=NCCC[C@H](NCN1CCN(C(=O)c2cc(Cc3n[nH]c(=O)c4ccccc34)ccc2F)CC1)C(=O)O [PPNR-4] . Could you help?
A: < 5.00

###

targetOrSystem: JNK1 (Homo sapiens)
reportedEndpoint: IC50

Q: Hello, I am looking for reported IC50 with JNK1 (Homo sapiens) for NC(N)=NCCC[C@H](NCN1CCN(C(=O)c2cc(Cc3n[nH]c(=O)c4ccccc34)ccc2F)CC1)C(=O)O . Could you help?
A: > 10 µM

###

targetOrSystem: DCAMKL2 (Homo sapiens, UniProt Q8N568)
reportedEndpoint: IC50

Q: Name the reported IC50 value associated with the compound NC(N)=NCCC[C@H](NCN1CCN(C(=O)c2cc(Cc3n[nH]c(=O)c4ccccc34)ccc2F)CC1)C(=O)O
A: > 10 µM

###

targetOrSystem: MLK1 (Homo sapiens, UniProt P80192)
Sequence (P80192 whole entry): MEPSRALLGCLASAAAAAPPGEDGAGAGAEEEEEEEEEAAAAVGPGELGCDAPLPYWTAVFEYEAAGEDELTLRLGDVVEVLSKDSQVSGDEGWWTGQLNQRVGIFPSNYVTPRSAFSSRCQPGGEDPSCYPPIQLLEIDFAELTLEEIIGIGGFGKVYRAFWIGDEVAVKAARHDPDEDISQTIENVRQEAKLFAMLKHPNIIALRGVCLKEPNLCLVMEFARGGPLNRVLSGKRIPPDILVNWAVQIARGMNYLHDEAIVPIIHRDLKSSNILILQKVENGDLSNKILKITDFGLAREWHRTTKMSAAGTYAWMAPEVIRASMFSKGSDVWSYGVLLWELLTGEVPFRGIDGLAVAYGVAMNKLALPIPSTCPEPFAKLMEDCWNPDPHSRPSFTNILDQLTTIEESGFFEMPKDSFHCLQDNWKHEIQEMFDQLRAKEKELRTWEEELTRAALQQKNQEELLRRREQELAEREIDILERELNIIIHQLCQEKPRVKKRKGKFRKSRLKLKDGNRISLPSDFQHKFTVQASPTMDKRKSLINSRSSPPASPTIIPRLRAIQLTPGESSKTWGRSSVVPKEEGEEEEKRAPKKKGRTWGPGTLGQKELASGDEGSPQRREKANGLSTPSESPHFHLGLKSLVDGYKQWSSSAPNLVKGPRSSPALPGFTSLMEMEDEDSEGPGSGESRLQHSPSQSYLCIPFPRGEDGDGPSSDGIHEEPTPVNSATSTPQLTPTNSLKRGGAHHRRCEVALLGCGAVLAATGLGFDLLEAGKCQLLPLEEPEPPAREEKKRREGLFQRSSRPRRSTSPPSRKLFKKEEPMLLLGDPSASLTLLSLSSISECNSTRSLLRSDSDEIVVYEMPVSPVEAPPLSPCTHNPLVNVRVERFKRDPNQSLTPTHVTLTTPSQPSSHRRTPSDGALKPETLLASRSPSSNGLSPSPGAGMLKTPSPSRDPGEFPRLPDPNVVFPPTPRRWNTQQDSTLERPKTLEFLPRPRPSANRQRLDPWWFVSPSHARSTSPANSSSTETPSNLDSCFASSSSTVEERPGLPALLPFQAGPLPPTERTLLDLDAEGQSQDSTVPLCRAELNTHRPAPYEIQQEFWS
experimentSummary: Selectivity profile (123 kinase panel)
Assay type: biochemical
reportedEndpoint: IC50

Q: Name the reported IC50 value associated with the molecule NC(N)=NCCC[C@H](NCN1CCN(C(=O)c2cc(Cc3n[nH]c(=O)c4ccccc34)ccc2F)CC1)C(=O)O
A: > 10 µM

###

Reported values of pIC50 for individual entries
targetOrSystem: PARP1 (Homo sapiens, UniProt P09874)
Note on pIC50: it is the negative log10 of concentration, concentration in mol/L.

Consider the worked cases shown below.
>  <compound>
NC(N)=NCCC[C@H](NC/C=C/CNC(=O)c1cc(Cc2n[nH]c(=O)c3ccccc23)ccc1F)C(=O)O [PPNR-3]

>  <targetOrSystem>
PARP1 (Homo sapiens, UniProt P09874)

>  <endpointResult>
7.20

$$$$
>  <compound>
CN(CCNC(=O)c1cc(Cc2n[nH]c(=O)c3ccccc23)ccc1F)CN[C@@H](CCCN=C(N)N)C(=O)O [PPNR-5]

>  <targetOrSystem>
PARP1 (Homo sapiens, UniProt P09874)

>  <endpointResult>
7.38

$$$$

Kindly consider the entry below.
Q: Name the reported pIC50 value associated with the compound NC(N)=NCCC[C@H](NCN1CCCN(C(=O)c2cc(Cc3n[nH]c(=O)c4ccccc34)ccc2F)C1)C(=O)O [PPNR-2]
A: 7.53

###

targetOrSystem: UniProtKB Q8N3A8
experimentSummary: Selectivity profile (other isoforms of PARP and NRP family)
pIC50: −log10 of the molar value.
reportedEndpoint: pIC50

Q: Name the reported pIC50 value associated with the molecule NC(N)=NCCC[C@H](NCN1CCN(C(=O)c2cc(Cc3n[nH]c(=O)c4ccccc34)ccc2F)CC1)C(=O)O [PPNR-4]
A: < 5.00

###

targetOrSystem: MRCKα (Homo sapiens)
Sequence (Q5VT25 whole entry): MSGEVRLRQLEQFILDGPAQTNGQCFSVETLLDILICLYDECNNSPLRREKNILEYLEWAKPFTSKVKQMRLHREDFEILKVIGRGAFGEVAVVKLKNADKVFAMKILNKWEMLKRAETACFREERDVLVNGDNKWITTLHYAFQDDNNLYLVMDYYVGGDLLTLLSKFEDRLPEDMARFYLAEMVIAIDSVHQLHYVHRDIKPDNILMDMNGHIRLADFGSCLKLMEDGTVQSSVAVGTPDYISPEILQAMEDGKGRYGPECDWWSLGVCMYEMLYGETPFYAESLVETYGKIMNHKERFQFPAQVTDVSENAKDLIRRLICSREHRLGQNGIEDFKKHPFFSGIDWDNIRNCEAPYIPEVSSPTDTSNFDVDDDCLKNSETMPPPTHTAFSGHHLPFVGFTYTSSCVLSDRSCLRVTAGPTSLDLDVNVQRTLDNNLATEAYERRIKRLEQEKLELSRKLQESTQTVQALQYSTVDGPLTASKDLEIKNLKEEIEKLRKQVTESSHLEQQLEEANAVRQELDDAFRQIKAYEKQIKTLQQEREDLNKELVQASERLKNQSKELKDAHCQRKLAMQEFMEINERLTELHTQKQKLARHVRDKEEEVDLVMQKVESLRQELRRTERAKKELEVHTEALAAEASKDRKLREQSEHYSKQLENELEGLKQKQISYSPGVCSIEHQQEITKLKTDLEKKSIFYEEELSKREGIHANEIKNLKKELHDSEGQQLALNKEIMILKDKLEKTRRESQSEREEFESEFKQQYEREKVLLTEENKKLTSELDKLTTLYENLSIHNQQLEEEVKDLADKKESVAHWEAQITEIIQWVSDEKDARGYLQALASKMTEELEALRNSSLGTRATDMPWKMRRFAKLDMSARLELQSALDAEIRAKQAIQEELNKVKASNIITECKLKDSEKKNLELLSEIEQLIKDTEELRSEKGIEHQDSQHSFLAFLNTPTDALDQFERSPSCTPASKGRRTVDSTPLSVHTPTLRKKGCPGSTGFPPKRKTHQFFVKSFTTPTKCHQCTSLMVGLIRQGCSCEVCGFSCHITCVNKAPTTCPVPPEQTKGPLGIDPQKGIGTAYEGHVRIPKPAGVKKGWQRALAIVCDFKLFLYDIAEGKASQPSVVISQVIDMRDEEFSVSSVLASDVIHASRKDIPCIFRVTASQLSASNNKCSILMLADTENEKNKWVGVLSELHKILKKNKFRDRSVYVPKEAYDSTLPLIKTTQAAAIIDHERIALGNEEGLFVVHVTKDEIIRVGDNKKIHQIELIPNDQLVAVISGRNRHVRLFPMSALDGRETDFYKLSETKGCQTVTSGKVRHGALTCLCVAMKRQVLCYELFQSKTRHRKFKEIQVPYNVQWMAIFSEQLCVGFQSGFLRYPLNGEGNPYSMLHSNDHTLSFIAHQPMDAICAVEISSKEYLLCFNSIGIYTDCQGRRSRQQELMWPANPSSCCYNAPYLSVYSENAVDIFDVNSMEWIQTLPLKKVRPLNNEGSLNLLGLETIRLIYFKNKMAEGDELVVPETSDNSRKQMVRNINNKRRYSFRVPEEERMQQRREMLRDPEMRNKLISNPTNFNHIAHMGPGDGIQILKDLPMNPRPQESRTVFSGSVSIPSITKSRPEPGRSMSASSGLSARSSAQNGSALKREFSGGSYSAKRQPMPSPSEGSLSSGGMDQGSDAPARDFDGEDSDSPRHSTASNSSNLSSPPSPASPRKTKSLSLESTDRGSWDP
reportedEndpoint: IC50

Q: Hello, I am looking for reported IC50 with MRCKα (Homo sapiens) for NC(N)=NCCC[C@H](NCN1CCN(C(=O)c2cc(Cc3n[nH]c(=O)c4ccccc34)ccc2F)CC1)C(=O)O . Could you help?
A: > 10 µM

###

// values below are IC50; system is NRP1 (Homo sapiens)
All answers are understood in nM, so give the number only.

>  <lineNotation>
NC(N)=NCCC[C@H](NC(=O)c1sccc1NS(=O)(=O)c1cccc2nsnc12)C(=O)O

>  <IC50 [nM]>
640

$$$$
>  <lineNotation>
NC(N)=NCCC[C@H](NCNCCNC(=O)c1cc(Cc2n[nH]c(=O)c3ccccc23)ccc1F)C(=O)O

>  <IC50 [nM]>
94.1

$$$$
>  <lineNotation>
CN(CCNC(=O)c1cc(Cc2n[nH]c(=O)c3ccccc23)ccc1F)CN[C@@H](CCCN=C(N)N)C(=O)O

>  <IC50 [nM]>
57.1

$$$$

Kindly consider the entry below.
Q: Name the reported IC50 value associated with the compound NC(N)=NCCC[C@H](NCN1CCN(C(=O)c2cc(Cc3n[nH]c(=O)c4ccccc34)ccc2F)CC1)C(=O)O
A: 24.5

###

targetOrSystem: PARP12 (Homo sapiens)
Sequence (Q9H0J9 1-701): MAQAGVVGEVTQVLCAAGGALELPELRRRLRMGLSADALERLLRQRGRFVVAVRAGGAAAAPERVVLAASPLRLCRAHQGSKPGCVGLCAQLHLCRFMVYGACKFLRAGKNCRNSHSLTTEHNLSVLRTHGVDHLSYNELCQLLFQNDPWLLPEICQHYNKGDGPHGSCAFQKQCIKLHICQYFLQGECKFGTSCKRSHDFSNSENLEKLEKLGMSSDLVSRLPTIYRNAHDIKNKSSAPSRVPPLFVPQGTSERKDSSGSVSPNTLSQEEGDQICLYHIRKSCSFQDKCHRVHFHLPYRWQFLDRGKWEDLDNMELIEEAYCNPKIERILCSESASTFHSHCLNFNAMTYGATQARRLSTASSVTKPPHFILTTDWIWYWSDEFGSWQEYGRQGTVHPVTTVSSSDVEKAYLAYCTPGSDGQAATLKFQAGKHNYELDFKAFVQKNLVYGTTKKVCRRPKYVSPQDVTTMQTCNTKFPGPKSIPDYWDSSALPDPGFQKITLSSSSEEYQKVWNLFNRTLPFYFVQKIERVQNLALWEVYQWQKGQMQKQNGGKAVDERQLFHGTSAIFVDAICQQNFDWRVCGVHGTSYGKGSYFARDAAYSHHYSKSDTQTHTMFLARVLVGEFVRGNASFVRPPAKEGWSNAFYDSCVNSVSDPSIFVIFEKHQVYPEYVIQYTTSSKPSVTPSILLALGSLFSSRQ
experimentSummary: Specificity testing by MST assay
Format: binding
pKd: −log10 of the molar value.
reportedEndpoint: pKd

Q: Name the reported pKd value associated with the molecule NC(N)=NCCC[C@H](NCN1CCN(C(=O)c2cc(Cc3n[nH]c(=O)c4ccccc34)ccc2F)CC1)C(=O)O [PPNR-4]
A: < 5.00

###

targetOrSystem: CK1α (Homo sapiens, UniProt P48729)
Sequence (P48729 whole entry): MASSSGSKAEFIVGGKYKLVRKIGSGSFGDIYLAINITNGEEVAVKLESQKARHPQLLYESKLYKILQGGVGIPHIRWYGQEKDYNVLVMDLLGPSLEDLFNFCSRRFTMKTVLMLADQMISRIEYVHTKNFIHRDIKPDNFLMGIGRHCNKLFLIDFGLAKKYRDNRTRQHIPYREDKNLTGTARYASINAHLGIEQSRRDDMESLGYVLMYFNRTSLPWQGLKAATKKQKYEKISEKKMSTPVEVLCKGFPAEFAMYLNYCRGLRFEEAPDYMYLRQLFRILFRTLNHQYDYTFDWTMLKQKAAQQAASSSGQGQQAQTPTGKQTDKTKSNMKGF
reportedEndpoint: IC50

Q: Hello, I am looking for reported IC50 with CK1α (Homo sapiens, UniProt P48729) for NC(N)=NCCC[C@H](NCN1CCN(C(=O)c2cc(Cc3n[nH]c(=O)c4ccccc34)ccc2F)CC1)C(=O)O . Could you help?
A: > 10 µM

###

targetOrSystem: PARP10 (Homo sapiens)
Sequence (Q53GL7 1-1025): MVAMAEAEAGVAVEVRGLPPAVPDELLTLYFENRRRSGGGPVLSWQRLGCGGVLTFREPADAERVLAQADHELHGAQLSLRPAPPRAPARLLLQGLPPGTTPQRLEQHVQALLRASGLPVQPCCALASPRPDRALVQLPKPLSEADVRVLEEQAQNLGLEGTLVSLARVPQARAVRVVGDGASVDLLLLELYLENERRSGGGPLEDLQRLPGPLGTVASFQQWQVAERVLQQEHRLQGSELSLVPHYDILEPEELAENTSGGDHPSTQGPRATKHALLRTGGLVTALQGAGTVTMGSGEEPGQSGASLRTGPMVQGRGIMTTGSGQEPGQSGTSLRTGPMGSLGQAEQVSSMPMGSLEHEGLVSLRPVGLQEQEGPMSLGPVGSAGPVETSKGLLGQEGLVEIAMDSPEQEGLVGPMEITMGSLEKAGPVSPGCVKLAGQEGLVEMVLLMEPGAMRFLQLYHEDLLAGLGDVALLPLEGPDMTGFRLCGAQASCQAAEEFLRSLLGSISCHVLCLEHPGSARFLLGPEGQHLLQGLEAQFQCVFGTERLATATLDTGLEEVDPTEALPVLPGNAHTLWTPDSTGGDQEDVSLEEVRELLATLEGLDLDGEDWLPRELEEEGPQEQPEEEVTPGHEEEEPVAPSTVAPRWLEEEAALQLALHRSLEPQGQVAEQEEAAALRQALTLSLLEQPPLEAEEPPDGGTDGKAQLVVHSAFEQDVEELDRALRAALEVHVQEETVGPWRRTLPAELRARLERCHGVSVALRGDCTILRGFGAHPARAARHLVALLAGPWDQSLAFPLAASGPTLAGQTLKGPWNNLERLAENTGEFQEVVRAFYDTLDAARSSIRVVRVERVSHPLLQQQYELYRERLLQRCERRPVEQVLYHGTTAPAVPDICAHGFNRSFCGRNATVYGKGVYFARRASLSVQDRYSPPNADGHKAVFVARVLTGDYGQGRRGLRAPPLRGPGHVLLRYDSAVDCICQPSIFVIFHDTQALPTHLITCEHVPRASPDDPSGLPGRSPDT
reportedEndpoint: Kd

Q: Name the reported Kd value associated with the compound NC(N)=NCCC[C@H](NCN1CCN(C(=O)c2cc(Cc3n[nH]c(=O)c4ccccc34)ccc2F)CC1)C(=O)O
A: > 10 µM
